Reported values of G1/G0 population for individual entries
- Tested on: S. cerevisiae BY4741 DNA content flow cytometry, cell cycle
- MEASUREMENT PROTOCOL: S. cerevisiae cell cycle DNA content profile – flow cytometry (AID 504936);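 note: yeast exposed to compound for three five or seven days before fixation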
- REPORTED CONDITIONS: at 10 µM; stronger effect = higher value
Activity calls are given as the source filed them.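 Rule for the calls: active = cytostatic effect above 60% on a scale from DMSO controls to rapamycin controls, holding yeast in G1/G0 phase; inactive = the rest.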

Q: G1/G0 population for `O=C(CN1CCN(c2ccccn2)CC1)Nc1ccccc1F` ?
A: 74% (inactive)

###

- Test system: S. cerevisiae BY4741 DNA content flow cytometry, cell cycle
- MEASUREMENT PROTOCOL: S. cerevisiae cell cycle DNA content profile – flow cytometry (AID 504936);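 note: yeast exposed to compound for three five or seven days before fixation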
- REPORTED CONDITIONS: at 10 µM; stronger effect = higher value
# reported G1/G0 population; entries follow
The reply should contain only the number, in %.

{"COMPOUND": "CC(C)OC(=O)CSc1nnc(-c2ccc(Cl)cc2Cl)o1", "MEAS VALUE": 79.6}
{"COMPOUND": "N#CC(c1nc2ccccc2nc1N1CCCC1)S(=O)(=O)c1ccccc1 (stereo not drawn)", "MEAS VALUE": 75.8}
{"COMPOUND": "CCN(CC)C(=O)CSc1nnc(-c2cccc(OC)c2)o1", "MEAS VALUE": 70.5}
{"COMPOUND": "COc1ccc2c(c1)c1nnc(SC)nc1n2C", "MEAS VALUE": 58.9}

Q: If you can, please state the reported G1/G0 population value of `C[C@@]12C(=O)OC(=O)[C@]1(C)C1CCC2O1` .
A: 61.6

Q: For the compound shown here, `COc1ccc2nc3ccccc3nc2c1` , give the reported G1/G0 population.
A: 65.9

Q: Record request: G1/G0 population value, item `CCn1c2ccccc2c2n[nH]c(=S)nc21`
A: 80

Q: Suppose we examine the compound `N#CCc1nn(-c2ccccc2)c2ncnc(N)c12` ; what G1/G0 population value has been reported?
A: 78.8

Q: Quick one: G1/G0 population for `c1ccc2nc3ccccc3nc2c1` ?
A: 71.8

Q: Entry `CC(C)(C)n1nc(-c2ccc(Cl)cc2)c2c(N)ncnc21` has what G1/G0 population?
A: 70.8

###

- Tested on: S. cerevisiae BY4741 DNA content flow cytometry, cell cycle
- MEASUREMENT PROTOCOL: S. cerevisiae cell cycle DNA content profile – flow cytometry (AID 504936);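 note: yeast exposed to compound for three five or seven days before fixation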
- REPORTED CONDITIONS: measured here: G2 phase fraction; at 10 µM; stronger effect = lower value
ATTRIBUTE MEASURED: G2 population (%)
Numeric answer only, unit % assumed.

{"INPUT SMILES": "Cn1c(O)c(C(=Nc2ccc(F)cc2)c2ccccc2Cl)c(=O)n(C)c1=O", "UNITS": "%", "MEAS VALUE": 14.8}
{"INPUT SMILES": "CC(C)CSc1nnc2c3ccccc3n(C)c2n1", "UNITS": "%", "MEAS VALUE": 12}
{"INPUT SMILES": "CC(C)(C)n1nc(-c2ccc(Cl)cc2)c2c(N)ncnc21", "UNITS": "%", "MEAS VALUE": 0.23}
{"INPUT SMILES": "N#CCc1nn(-c2ccccc2)c2ncnc(N)c12", "UNITS": "%", "MEAS VALUE": 10.6}
{"INPUT SMILES": "C[n+]1c2ccccc2nc2ccc(NCCO)cc21", "UNITS": "%", "MEAS VALUE": 7.26}
{"INPUT SMILES": "CCn1c2ccccc2c2n[nH]c(=S)nc21", "UNITS": "%", "MEAS VALUE": 11.1}
{"INPUT SMILES": "Oc1cccc2nc3ccccc3nc12", "UNITS": "%", "MEAS VALUE": 9.27}
{"INPUT SMILES": "FC(F)(F)c1nc2cc3nc4ccccc4[nH]c3cc2n1", "UNITS": "%", "MEAS VALUE": 10.6}

Q: Look up G2 population for this compound: `CCc1nc(NC(C)(C)C)c2cnn(-c3ccccc3)c2n1`
A: 13.1

Q: Consider the compound `CC(C)OC(=O)CSc1nnc(-c2ccc(Cl)cc2Cl)o1` and give its measured G2 population.
A: 12.9

Q: Which G2 population is listed for `CSc1nnc(-c2ccc([N+](=O)[O-])cc2)o1` ?
A: 10.8

Q: Query (compound): `CCN(CC)C(=O)c1ccc2nc3ccccc3nc2c1` ; field requested: G2 population
A: 11.3
